Biological target: T1, CTLA4-Fc (Fitzgerald, #30R-CD152) (human, UniProt P16410 38-152, biotinylated where used as soluble reagent in the inhibition ELISAs)
T1 construct: Bought reagent; also called human CTLA-4 (Fitzgerald); biotinylated-CTLA4
T1 sequence (P16410 38-152 limits assumed): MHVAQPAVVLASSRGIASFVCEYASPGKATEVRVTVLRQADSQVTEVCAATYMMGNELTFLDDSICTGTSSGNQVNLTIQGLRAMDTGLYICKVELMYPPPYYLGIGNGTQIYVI
Assay: binding ELISA; ratio [EC50 for CD28-Fc]/[EC50 for CTLA4-Fc]
Property Label: EC50 binding ratio

CD86 mutant 906 (ligand, Variant of the soluble extracellular domain of human CD86) LKIQAYINETADLPCQFANSQNLSLSELVVFWQDQENLVLNEVYLGKERFDSVDSKYMGRTSFDSDSWTLRLHNLQIKDKGFYQCIIHHKKPTGLVKIHEMNSELSVLA = 16.2
CD86 mutant 915 (ligand, Variant of the soluble extracellular domain of human CD86) LKIQAYFNETADLPCQFANSQNQSLSELVVFWQDQENLILNEVYLGKEKFDSVDSKYMGRTSFDSDSWTLRLHNLQIKDKGFYQCIIHHKKPSGLIKIHQMDSELSVLA = 9.9
human wild-type CD86 (monomeric soluble extracellular domain), sample 'Wild type' (ligand, also called wild type protein) APLKIQAYFNETADLPCQFANSQNQSLSELVVFWQDQENLVLNEVYLGKEKFDSVHSKYMGRTSFDSDSWTLRLHNLQIKDKGLYQCIIHHKKPTGMIRIHQMNSELSVLA = 3.4
CD86 mutant 904 (ligand, Variant of the soluble extracellular domain of human CD86) LKIQAYFNETADLPCQFANSQNQSLSELIVFWQDQENLVLNEVYLGKERFDAVDSKYMGRTSFDSDSWTLRLHNLQIKDKGIYQCIIHHKKPSGMVKIHQMDSELSVLA = 12.2
CD86 mutant 907 (ligand, Variant of the soluble extracellular domain of human CD86) LKIQAYFNETADLPCQFANSQNQSLSELVVFWQDQENLVLNEVYLGKEKFDSVHSKYMGRTSFDSDSWTLRLHNLQIKDKGLYQCIIHHKKPTGMIKIHEMNSELSVLA = 30.5
CD86 mutant 901 (ligand, Variant of the soluble extracellular domain of human CD86) LKIQAYFNETADLPCQFANSQNLTLSELVVFWQDQENLVLNEVYLGKEKFDSVHSKYMGRTSFDSDSWTLRLHNLQIKDKGIYQCVIHHKKPTGMIKIHEMNSELSVLT = 17.2

The reported numbers originate from patent US20200048358A1.
